IC50 values by entry
Target Or System: p38α (Homo sapiens)
Assay Explanation: ADP-Glo Kinase Assay, p38α MAP kinase inhibition
Assay type: biochemical
Condition Set: read-out: p38α MAP kinase inhibitory activity IC50
Could you give me the number in nM? Just the number is fine.

Consider the worked cases shown below.
### Prompt Answer with the recorded IC50 for the compound listed here: CC(C)Oc1ccc(NC(=O)NCCc2cc(Br)c(O)c(Br)c2)cc1
### Response 850

### Prompt Answer with the recorded IC50 for the compound listed here: CCCOc1ccc(NC(=O)NCCc2cc(Br)c(O)c(Br)c2)cc1
### Response 297

Alright, here's another compound for you.
### Prompt Answer with the recorded IC50 for the compound listed here: CCOc1ccc(NC(=O)NCCc2cc(Br)c(O)c(Br)c2)cc1
### Response 170

* * *

Target Or System: p38α (Homo sapiens, UniProt Q16539)
Sequence (Q16539 whole entry): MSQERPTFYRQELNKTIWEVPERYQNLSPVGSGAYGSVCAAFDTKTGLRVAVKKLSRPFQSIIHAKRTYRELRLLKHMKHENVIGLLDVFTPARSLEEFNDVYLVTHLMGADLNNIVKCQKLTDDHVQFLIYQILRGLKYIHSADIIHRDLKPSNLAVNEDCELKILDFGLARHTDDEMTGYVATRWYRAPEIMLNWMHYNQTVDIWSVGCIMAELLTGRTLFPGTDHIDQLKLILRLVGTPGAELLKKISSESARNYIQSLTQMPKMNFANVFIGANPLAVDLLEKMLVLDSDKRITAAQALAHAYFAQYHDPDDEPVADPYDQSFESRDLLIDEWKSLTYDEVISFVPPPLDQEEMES
Assay Explanation: ADP-Glo Kinase Assay, p38α MAP kinase inhibition
Format: biochemical
Condition Set: read-out: p38α MAP kinase inhibitory activity IC50
Observed Property: log10(IC50) (log10 of the value in nM)
// do not treat as linear: log10 of IC50, unit nM

Consider the worked cases shown below.
### Prompt Answer with the recorded log10(IC50) for the molecule listed here: O=C(NCCc1cc(Br)c(O)c(Br)c1)Nc1ccc(Br)cc1
### Response 1.71

### Prompt Answer with the recorded log10(IC50) for the molecule listed here: O=C(NCCc1cc(Br)c(O)c(Br)c1)Nc1ccccc1F
### Response 1.01

Continuing:
### Prompt Answer with the recorded log10(IC50) for the molecule listed here: CCCCOc1ccc(NC(=O)NCCc2cc(Br)c(O)c(Br)c2)cc1
### Response 2.96

### Prompt Answer with the recorded log10(IC50) for the molecule listed here: Cc1ccc(NC(=O)NCCc2cc(Br)c(O)c(Br)c2)cc1
### Response 1.59

### Prompt Answer with the recorded log10(IC50) for the molecule listed here: O=C(NCCc1cc(Br)c(O)c(Br)c1)Nc1ccc(OCCCN2CCOCC2)cc1
### Response 2.22

### Prompt Answer with the recorded log10(IC50) for the molecule listed here: O=C(NCCc1cc(Br)c(O)c(Br)c1)Nc1ccc(F)cc1
### Response 0.99

### Prompt Answer with the recorded log10(IC50) for the molecule listed here: O=C(NCCc1cc(Br)c(O)c(Br)c1)Nc1cccc(Cl)c1
### Response 1.14

### Prompt Answer with the recorded log10(IC50) for the molecule listed here: COc1ccc(NC(=O)NCCc2cc(Br)c(O)c(Br)c2)cc1
### Response 2.42

### Prompt Answer with the recorded log10(IC50) for the molecule listed here: COCCOc1ccc(NC(=O)NCCc2cc(Br)c(O)c(Br)c2)cc1
### Response 1.05

### Prompt Answer with the recorded log10(IC50) for the molecule listed here: O=C(NCCc1cc(Br)c(O)c(Br)c1)Nc1ccccc1Cl
### Response 1.87

Where do these numbers come from? They come from paper PMC12471852.
